Assay: Microsomal metabolic stability assay
Type: in vitro ADME
Conditions: pH 7.4; rat liver microsomes, 0.5 mg/mL protein, 1 μM compound; read-out: Rat LM Clint
Rule for this label: Criterion met means microsomal CLint at 1 μM is less than 30 µL/min/mg; Criterion not met means microsomal CLint at 1 μM is at least 30 µL/min/mg.

Decide: microsomal CLint at 1 μM of [2H]C([2H])([2H])NC(=O)c1cnc(Nc2ccc(C#N)cc2)nc1Nc1cccc(-c2ncn(C)n2)c1OC strictly below 30 µL/min/mg?
Criterion met

Also, [2H]C([2H])([2H])NC(=O)c1cnc(NC(=O)C2CC2)cc1Nc1csc2cnn(CC3CC3(F)F)c(=O)c12 (stereo not shown) please.
Criterion met

Also, [2H]C([2H])([2H])NC(=O)c1cnc(NC(=O)C2CC2)cc1Nc1ccn2ncc(C#N)c2c1OC please.
Criterion not met

Also, [2H]C([2H])([2H])NC(=O)c1nnc2cc1Nc1cc(cc(-c3ncn(C)n3)c1OC)COCc1nc(ccc1F)N2 please.
Criterion not met

Also, [2H]C([2H])([2H])NC(=O)c1cnc(Nc2ccc(F)cn2)cc1Nc1ncc2cnn(CC)c2c1OC please.
Criterion not met

Also, [2H]C([2H])([2H])NC(=O)c1nnc2cc1Nc1cc(cc(-c3ncn(C)n3)c1OC)COCc1cc(F)cc(n1)N2 please.
Criterion met
